- System Name: pm5 (human, sulfated tyrosines at Y15 and Y17)
- Sequence (peptide, as listed by the source): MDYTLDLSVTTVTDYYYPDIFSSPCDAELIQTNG
- Protocol Description: ELISA on coated peptide [cont.]
Reported Metric: binding result

>>> test_value("3-80 (antibody, human IgG1, kappa, V domains shown, humanized, human IgG1 kappa) VH: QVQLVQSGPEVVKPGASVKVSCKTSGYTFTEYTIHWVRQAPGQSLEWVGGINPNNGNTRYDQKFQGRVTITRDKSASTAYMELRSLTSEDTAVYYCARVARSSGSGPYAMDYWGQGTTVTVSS VL: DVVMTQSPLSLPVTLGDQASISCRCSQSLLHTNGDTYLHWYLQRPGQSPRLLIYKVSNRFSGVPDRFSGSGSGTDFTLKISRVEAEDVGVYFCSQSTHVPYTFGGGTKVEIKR")
"binds"
>>> test_value("3-11 (antibody, V domains shown) VH: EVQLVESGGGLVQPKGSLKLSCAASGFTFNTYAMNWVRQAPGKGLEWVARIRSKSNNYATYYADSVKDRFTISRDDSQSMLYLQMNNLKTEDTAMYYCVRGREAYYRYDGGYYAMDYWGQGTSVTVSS VL: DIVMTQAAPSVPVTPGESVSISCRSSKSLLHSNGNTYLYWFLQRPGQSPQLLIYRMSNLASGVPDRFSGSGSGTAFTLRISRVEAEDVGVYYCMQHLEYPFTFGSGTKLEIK")
"binds"
>>> test_value("3-45 (antibody, V domains shown) VH: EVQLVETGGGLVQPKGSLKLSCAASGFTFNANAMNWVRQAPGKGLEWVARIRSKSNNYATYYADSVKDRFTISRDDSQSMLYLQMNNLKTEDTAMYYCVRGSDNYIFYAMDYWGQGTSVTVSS VL: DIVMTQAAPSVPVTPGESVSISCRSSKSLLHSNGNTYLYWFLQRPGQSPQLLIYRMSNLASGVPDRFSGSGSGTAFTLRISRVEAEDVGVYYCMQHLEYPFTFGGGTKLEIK")
"binds"
